These measurements were taken from PubChem BioAssay (NCATS).

Experiment: qHTS of pediatric cancer cell lines to identify multiple opportunities for drug repurposing: Primary screen for BT-37 cells (AID 1347094); also: potency is read from the fitted curve at half-maximal effect
Conditions: BT-37 viability, CellTiter-Glo luminescence, 48 h; series mostly up to 57.3 µM
Inconclusive results are not listed. Activity calls are given as the source filed them. Calls follow the shape of the dose curve; as a rule, active = well fitted cell-killing curve with a large enough effect; inconclusive = small, poorly fitted or top-dose-only effect; inactive = flat fitted curve, though single readings scatter.
readout: Potency

> print(dat)
                                    compound  readout                val
 1  CN1CCCC(n2nc(Cc3ccc(Cl)cc3)c3ccccc3c2=O)CC1 (stereo unspecified)  Potency   2.43 µM (active)
 2  CCn1cc(C(=O)O)c(=O)c2cc(F)c(N3CCNCC3)cc21  Potency           inactive
 3       CCN(C)C(=O)Oc1cccc([C@H](C)N(C)C)c1  Potency           inactive
 4  CCn1cc(C(=O)O)c(=O)c2cc(F)c(N3CCNCC3)nc21  Potency           inactive
 5                   CCCCOc1ccc(CC(=O)NO)cc1  Potency   19.5 µM (active)
 6  O[C@@H](CNC[C@H](O)[C@H]1CCc2cc(F)ccc2O1)[C@@H]1CCc2cc(F)ccc2O1  Potency   27.6 µM (active)
 7             Nc1ccc(S(=O)(=O)Nc2ccccn2)cc1  Potency           inactive
 8  CCC(=O)O[C@]1(C(=O)CCl)[C@@H](C)C[C@H]2[C@@H]3CCC4=CC(=O)C=C[C@]4(C)[C@@]3(F)[C@@H](O)C[C@@]21C  Potency           inactive
 9  Nc1nc(F)nc2c1ncn2[C@@H]1O[C@H](CO)[C@@H](O)[C@@H]1O  Potency  0.863 µM (active)
10        OC(Cn1cncn1)(Cn1cncn1)c1ccc(F)cc1F  Potency           inactive
11  C[C@@H]1C[C@H]2[C@@H]3CCC4=CC(=O)C=C[C@]4(C)[C@@]3(Cl)[C@@H](O)C[C@]2(C)[C@@]1(OC(=O)c1ccco1)C(=O)CCl  Potency   21.7 µM (active)
12  COc1ccc(-c2ccc3cc(C(=O)O)ccc3c2)cc1C12CC3CC(CC(C3)C1)C2  Potency           inactive
13                  CCCN[C@H]1CCc2nc(N)sc2C1  Potency           inactive
14  CC(C)(Sc1cc(C(C)(C)C)c(O)c(C(C)(C)C)c1)Sc1cc(C(C)(C)C)c(O)c(C(C)(C)C)c1  Potency           inactive
15  CN1CCN(c2c(F)cc3c(=O)c(C(=O)O)cn4c3c2OCN4C)CC1  Potency           inactive
16  COc1c(N2CCNC(C)C2)c(F)cc2c(=O)c(C(=O)O)cn(C3CC3)c12 (stereo unspecified)  Potency           inactive
17                       CCCc1cc(C(N)=S)ccn1  Potency           inactive
18  CN(CCOc1ccc(CC2SC(=O)NC2=O)cc1)c1ccccn1 (stereo unspecified)  Potency           inactive
19  O=C(O)C1CCCN(CCC=C(c2ccccc2)c2ccccc2)C1 (stereo unspecified)  Potency           inactive
20                           NNC(=O)c1ccncc1  Potency           inactive
21  CCC(=O)O[C@]1(C(=O)SCF)[C@H](C)C[C@H]2[C@@H]3C[C@H](F)C4=CC(=O)C=C[C@]4(C)[C@@]3(F)[C@@H](O)C[C@@]21C  Potency           inactive

* * *

Test: qHTS profiling of the MIPE4 collection as inhibitors of Plasmodium falciparum (DD2) proliferation (AID 743345)
Settings: P. falciparum Dd2 in erythrocytes, SYBR Green DNA, 72 h; at 28.5 µM (top of the series) unless noted
readout: parasite growth remaining, % of DMSO control (lower = more inhibition) (%)

> print(dat)
                                    compound   val
 1  COc1cc2nc(N3CCCN(C)CC3)nc(NC3CCN(Cc4ccccc4)CC3)c2cc1OC  6.59
 2         O=P(O)(O)C(O)(Cc1cccnc1)P(=O)(O)O  99.5
 3  CCn1cc(C(=O)O)c(=O)c2cc(F)c(N3CCNCC3)nc21  56.4
 4          Cc1noc(NS(=O)(=O)c2ccc(N)cc2)c1C  98.9
 5              O=C(O)c1cc(=O)[nH]c(=O)[nH]1   144
 6  CNC(=O)c1cc(Oc2ccc(NC(=O)Nc3ccc(Cl)c(C(F)(F)F)c3)cc2)ccn1    14
 7  Cn1c(=O)c2c(ncn2CC(O)CO)n(C)c1=O (stereo not given)  88.3
 8  CO[C@@H]1[C@@H](OC(N)=O)[C@@H](O)[C@H](Oc2ccc3c(O)c(NC(=O)c4ccc(O)c(CC=C(C)C)c4)c(=O)oc3c2C)OC1(C)C  75.8
 9  O=C(N[C@H](CO)[C@H](O)c1ccc([N+](=O)[O-])cc1)C(Cl)Cl   100
10  CCOc1cc(N)c(Cl)cc1C(=O)NCC1CN(Cc2ccc(F)cc2)CCO1 (stereo not given)   101

* * *

Test: S16 Schwann cell PMP22 intronic element firefly luciferase assay (AID 624032); also: nearly all actives have a fitted effect of over 30% in size
Conditions: S16 rat Schwann cells, PMP22 element FLuc, 24 h; series mostly up to 57.5 µM
Inconclusive results are not listed. Active and inactive are the calls of the source. Calls come from the whole dose curve; as a rule, active = well fitted inhibition curve with a large enough effect; inconclusive = small, poorly fitted or top-dose-only effect; inactive = no such curve, though single readings can be large or run the other way.
Outcome codes: 1.0 for active, 0.0 for inactive

> print(dat)
                                    compound  qualitative.label
 1         O=P(O)(O)C(O)(Cc1cccnc1)P(=O)(O)O                0.0
 2  CCC(C)(C)c1ccc(CC(C)CN2C[C@@H](C)O[C@@H](C)C2)cc1 (stereo partly specified)                0.0
 3  Cc1oc(=O)oc1CN1CCN(c2cc3c(cc2F)c(=O)c(C(=O)O)c2n3C(C)S2)CC1 (stereo unspecified)                0.0
 4        CC(C)OC(=O)C(C(=O)OC(C)C)=C1SC=CS1                0.0
 5  CC(N)C12CC3CC(CC(C3)C1)C2 (stereo unspecified)                0.0
 6             Nc1nc(N)nc(-c2cc(Cl)ccc2Cl)n1                0.0
 7  CNC(=O)c1cc(Oc2ccc(NC(=O)Nc3ccc(Cl)c(C(F)(F)F)c3)cc2)ccn1                1.0
 8  COc1c(N2CCNC(C)C2)c(F)cc2c(=O)c(C(=O)O)cn(C3CC3)c12 (stereo unspecified)                0.0
 9                        CCc1cc(C(N)=S)ccn1                0.0
10     COc1cc(NS(=O)(=O)c2ccc(N)cc2)nc(OC)n1                0.0
11      CCOC(=O)c1ccc(OC(=O)CCCCCN=C(N)N)cc1                0.0
12  COc1cc(NCc2ccc3nc(N)nc(N)c3c2C)cc(OC)c1OC                1.0
13  C[C@@H](NCCCc1cccc(C(F)(F)F)c1)c1cccc2ccccc12                1.0
14          Cc1noc(NS(=O)(=O)c2ccc(N)cc2)c1C                0.0
15                         Nc1[nH]c(=O)ncc1F                0.0
16  COc1cc2c(Nc3ccc(Br)cc3F)ncnc2cc1OCC1CCN(C)CC1                1.0

* * *

Tested on: CAOV3
Test: Primary qHTS to identify gynecologic anti-cancer compounds using libraries of approved drugs and bioactive compounds (AID 1345084); also: % is scaled to controls: 0 for no effect and ±100 for the full control effect; nearly all actives have a fitted effect of over 55% in size
Conditions: Gynecologic cancer cell panel viability, ATPlite luminescence, 48 h; series mostly up to 57.5 µM
Results filed as inconclusive are left out. Calls of active or inactive are those of the source. The call rests on the fitted dose curve; in most records, active means well fitted cell-killing curve with a large enough effect; inconclusive means small, poorly fitted or top-dose-only effect, or effect the other way; inactive means flat fitted curve, though single readings scatter.
readout: outcome

> print(dat)
                                   compound       val
1     COc1cc(NS(=O)(=O)c2ccc(N)cc2)nc(OC)n1  inactive
2  C[C@@H](CN1CC(=O)NC(=O)C1)N1CC(=O)NC(=O)C1  inactive
3  CN(CCOc1ccc(CC2SC(=O)NC2=O)cc1)c1ccccn1 (stereo not drawn)  inactive

* * *

Tested on: CRL-7250
Assay: Cytotoxic Profiling of Annotated Libraries Using Quantitative High-Throughput Screening (AID 1296008); also: % is scaled to controls: 0 for no effect and ±100 for the full control effect; nearly all actives have a fitted effect of over 60% in size
Details: Five cell lines viability, CellTiter-Glo ATP luminescence, 48-72 h; stronger effect = lower value
Results filed as inconclusive are left out. Active and inactive are the calls of the source. The call rests on the fitted dose curve; in most records, active means well fitted inhibition curve with a large enough effect; inconclusive means small, poorly fitted or top-dose-only effect; inactive means flat fitted curve, though single readings scatter.
max response values, listed per item
readout: max response

> print(dat)
                                    compound                val
 1                    NC(=O)c1ccc2[nH]ccc2c1  -5.07% (inactive)
 2  C[C@]12C=CC(=O)C=C1CC[C@@H]1[C@@H]2C(=O)C[C@@]2(C)[C@H]1CC[C@]2(O)C(=O)CO   2.58% (inactive)
 3  CN(CCOc1ccc(CC2SC(=O)NC2=O)cc1)c1ccccn1 (stereo unspecified)  0.739% (inactive)
 4  CC(=O)[C@H]1CC[C@H]2[C@@H]3CC=C4C[C@@H](O)CC[C@]4(C)[C@H]3CC[C@]12C   3.91% (inactive)
 5  O=c1oc2c(O)c(O)cc3c(=O)oc4c(O)c(O)cc1c4c23  -1.07% (inactive)
 6                  O=NN(CCCl)C(=O)NC1CCCCC1   4.87% (inactive)
 7           Cc1cc(NS(=O)(=O)c2ccc(N)cc2)no1  -8.57% (inactive)
 8      CCOC(=O)c1ccc(OC(=O)CCCCCN=C(N)N)cc1   1.52% (inactive)
 9  CS(=O)(=O)c1ccc([C@@H](O)[C@@H](CO)NC(=O)C(Cl)Cl)cc1  -2.94% (inactive)
10  CCN(CC)CCn1c(=O)c(Cc2ccc(OC)cc2)nc2ccccc21  -4.28% (inactive)
11  NS(=O)(=O)c1cc2c(cc1Cl)NC(C(Cl)Cl)NS2(=O)=O (stereo unspecified)  -3.96% (inactive)
